tested on: OVCAR-3; test: Compound was tested for the growth inhibition of OVCAR-3 ovarian tumor cell line; format: functional, cell-based; details: Homo sapiens
value.kind: IC50 (µM)
Numeric only. Scale: µM

Q) Report its IC50 with OVCAR-3 as the test system: COc1ccc(OC)c(CC2CCc3nc(N)nc(N)c3C2)c1 (configuration not stated)
A) 15

Q) Output reported IC50 of the compound COc1cc(CC2CCc3nc(N)nc(N)c3C2)cc(OC)c1OC (configuration not stated) on OVCAR-3.
A) 9.8

* * *

Biological target: Bifunctional dihydrofolate reductase-thymidylate synthase (Toxoplasma gondii)
Sequence (Q07422 whole entry): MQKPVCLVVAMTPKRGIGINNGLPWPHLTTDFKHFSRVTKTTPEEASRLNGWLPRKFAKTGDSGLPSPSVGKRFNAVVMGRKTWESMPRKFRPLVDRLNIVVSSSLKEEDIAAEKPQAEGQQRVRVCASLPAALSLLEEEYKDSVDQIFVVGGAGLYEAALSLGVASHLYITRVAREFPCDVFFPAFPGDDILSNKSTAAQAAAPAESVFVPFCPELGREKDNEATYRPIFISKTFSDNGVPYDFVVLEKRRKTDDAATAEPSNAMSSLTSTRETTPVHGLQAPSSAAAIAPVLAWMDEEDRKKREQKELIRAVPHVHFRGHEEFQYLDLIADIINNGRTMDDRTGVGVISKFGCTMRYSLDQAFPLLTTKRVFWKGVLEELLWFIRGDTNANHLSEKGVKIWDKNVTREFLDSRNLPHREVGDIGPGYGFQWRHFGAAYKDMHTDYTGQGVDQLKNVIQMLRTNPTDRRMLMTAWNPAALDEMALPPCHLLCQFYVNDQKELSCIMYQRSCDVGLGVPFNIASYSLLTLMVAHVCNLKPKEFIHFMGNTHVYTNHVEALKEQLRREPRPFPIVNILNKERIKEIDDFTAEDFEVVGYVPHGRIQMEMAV
Simple rule here: IC50 less than 40 nM is Y, otherwise N.

Q) Does Nc1nc(N)c2c(n1)CCC(Cc1cccc(OC(F)(F)F)c1)C2 (centres undefined) have IC50 strictly under 40 nM?
A) Y

Q) Consider CCC1CCc2nc(N)nc(N)c2C1 (centres undefined) . Does its IC50 lie strictly below 40 nM?
A) N

Q) Hi there! Is IC50 for COc1cccc(CC2CCc3nc(N)nc(N)c3C2)c1 (centres undefined) below 40 nM, do you know?
A) Y

Q) Report whether reported IC50 is lower than 40 nM (strictly) for COc1ccccc1CC1CCc2nc(N)nc(N)c2C1 (centres undefined)
A) Y

Q) IC50 under 40 nM? Item: Nc1nc(N)c2c(n1)CCC(Cc1cccc(C(F)(F)F)c1)C2 (centres undefined)
A) N

Q) In plain terms, does COc1ccc(CC2CCc3nc(N)nc(N)c3C2)cc1 (centres undefined) come in under 40 nM for IC50?
A) N

Q) State whether 40 nM exceeds IC50 recorded for Nc1nc(N)c2c(n1)CCC(c1ccccc1)C2 (centres undefined) .
A) N

Q) Dear colleague, could you confirm whether IC50 of Nc1nc(N)c2c(n1)CCC(Cc1ccccc1)C2 (centres undefined) falls below 40 nM? Thanks.
A) Y

Q) Record Cc1cccc(CC2CCc3nc(N)nc(N)c3C2)c1 (centres undefined) : is its IC50 strictly below 40 nM?
A) Y

* * *

value.kind: pIC50
pIC50 is defined as minus the log10 of a concentration measured in mol/L.

Q) Give pIC50 for this entry on Dihydrofolate reductase (Pneumocystis carinii, UniProt P16184): CC(C)(C)C1CCc2nc(N)nc(N)c2C1 (configuration not stated)
Sequence (P16184 whole entry): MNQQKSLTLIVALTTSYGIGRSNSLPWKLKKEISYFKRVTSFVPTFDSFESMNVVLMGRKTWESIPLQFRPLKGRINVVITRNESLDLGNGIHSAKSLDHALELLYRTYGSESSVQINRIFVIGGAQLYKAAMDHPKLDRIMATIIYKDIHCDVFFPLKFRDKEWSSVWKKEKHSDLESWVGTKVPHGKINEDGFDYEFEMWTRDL
A) 6.74

Q) Param request: pIC50 | system Dihydrofolate reductase (Pneumocystis carinii, UniProt P16184) | item Nc1nc(N)c2c(n1)CCC(Cc1ccsc1)C2 (configuration not stated)
A) 5.77

Q) Provide Dihydrofolate reductase (Pneumocystis carinii, UniProt P16184) pIC50 reading for Nc1nc(N)c2c(n1)CCC(Cc1ccc(Cl)c(Cl)c1)C2 (configuration not stated) .
A) 4.82

Q) Give pIC50 for this entry on Dihydrofolate reductase (Pneumocystis carinii, UniProt P16184): Nc1nc(N)c2c(n1)CCC(Cc1cccs1)C2 (configuration not stated)
A) 6.68

Q) Provide pIC50, recorded with Dihydrofolate reductase (Pneumocystis carinii, UniProt P16184), of Nc1nc(N)c2c(n1)CCC(Cc1cccc(C(F)(F)F)c1)C2 (configuration not stated)
A) 6.40

Q) // fetch pIC50 for Cc1cccc(CC2CCc3nc(N)nc(N)c3C2)c1 (configuration not stated) ; system: Dihydrofolate reductase (Pneumocystis carinii, UniProt P16184)
A) 6.47

Q) Enter measured pIC50, system Dihydrofolate reductase (Pneumocystis carinii, UniProt P16184), for the molecule shown: COc1ccc(CC2CCc3nc(N)nc(N)c3C2)cc1OC (configuration not stated)
A) 7.00

Q) Give pIC50 only, for Nc1nc(N)c2c(n1)CCC(c1ccccc1)C2 (configuration not stated) , using Dihydrofolate reductase (Pneumocystis carinii, UniProt P16184) data.
A) 5.66

Q) Report pIC50 on Dihydrofolate reductase (Pneumocystis carinii, UniProt P16184) for this entry: COc1ccc(OC)c(CC2CCc3nc(N)nc(N)c3C2)c1 (configuration not stated)
A) 7.24

Q) Output reported pIC50 of the molecule COc1ccc(OC)c(CN2CCc3nc(N)nc(N)c3C2)c1 on Dihydrofolate reductase (Pneumocystis carinii, UniProt P16184).
A) 5.48

Q) Output reported pIC50 of the molecule Nc1nc(N)c2c(n1)CCC(Cc1cccc(OC(F)(F)F)c1)C2 (configuration not stated) on Dihydrofolate reductase (Pneumocystis carinii, UniProt P16184).
A) 7.00

Q) Quote Dihydrofolate reductase (Pneumocystis carinii, UniProt P16184) pIC50 for entry CCC1CCc2nc(N)nc(N)c2C1 (configuration not stated) .
A) 5.16
